- EXPERIMENT NOTES: APR_HepG2_CellCycleArrest_24hr: Apredica 24-hour HepG2 Assay for Cell Cycle Arrest (AID 2282905);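 note: cell cycle arrest scored as ratio of 2N to 4N nuclear DNA content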
- STUDY CONDITIONS: imaging, actives raise or lower the signal
Calls of active or inactive are those of the source. Rule for the calls: active = hit-call score of the fitted dose curve at least 0.9, where 1 is the maximum; inactive = score below 0.9.
Outcome codes: 1 (yes) for active, 0 (no) for inactive

COMPOUND: [2H]C1([2H])[n+]2ccccc2-c2cccc[n+]2C1([2H])[2H]
CLASS ASSIGNMENT: 0 (no)
//
COMPOUND: CCN(CC)C(=O)SCc1ccc(Cl)cc1
CLASS ASSIGNMENT: 0 (no)
//
COMPOUND: CNC(=O)/C=C(\C)OP(=O)(OC)OC
CLASS ASSIGNMENT: 0 (no)
//
COMPOUND: COc1cc(OC)nc(NC(=O)NS(=O)(=O)c2cc(NC=O)ccc2C(=O)N(C)C)n1
CLASS ASSIGNMENT: 0 (no)
//
COMPOUND: CNC(=O)Oc1ccccc1OC(C)C
CLASS ASSIGNMENT: 0 (no)
//
COMPOUND: CNC(=O)CSP(=S)(OC)OC
CLASS ASSIGNMENT: 0 (no)
//
COMPOUND: O=[N+]([O-])/N=C1\NCCN1Cc1ccc(Cl)nc1
CLASS ASSIGNMENT: 0 (no)
//
COMPOUND: COP(=S)(OC)Oc1ccc(SC)c(C)c1
CLASS ASSIGNMENT: 0 (no)
//
COMPOUND: O=[N+]([O-])c1c(Cl)c(Cl)c(Cl)c(Cl)c1Cl
CLASS ASSIGNMENT: 0 (no)
//
COMPOUND: CCOCN(C(=O)CCl)c1c(C)cccc1CC
CLASS ASSIGNMENT: 1 (yes)
//
COMPOUND: O=S1OCC2C(CO1)C1(Cl)C(Cl)=C(Cl)C2(Cl)C1(Cl)Cl (stereo not drawn)
CLASS ASSIGNMENT: 0 (no)
//
COMPOUND: CC1(C)C(C=C(Cl)Cl)C1C(=O)OC(C#N)c1ccc(F)c(Oc2ccccc2)c1 (stereo not drawn)
CLASS ASSIGNMENT: 0 (no)
//
COMPOUND: CC(C)(C)C(O)/C(=C\c1ccc(Cl)cc1Cl)n1cncn1 (stereo not drawn)
CLASS ASSIGNMENT: 0 (no)
//
COMPOUND: CCC(C)Nc1c([N+](=O)[O-])cc(C(C)(C)C)cc1[N+](=O)[O-] (stereo not drawn)
CLASS ASSIGNMENT: 1 (yes)
//
COMPOUND: CC(C)N(C(=O)COc1nnc(C(F)(F)F)s1)c1ccc(F)cc1
CLASS ASSIGNMENT: 0 (no)
//
COMPOUND: CC(C)OC(=O)Nc1cccc(Cl)c1
CLASS ASSIGNMENT: 0 (no)
//
COMPOUND: CNC(=O)Oc1cccc(N=CN(C)C)c1
CLASS ASSIGNMENT: 0 (no)
//
COMPOUND: CC[C@H](C)[C@H]1O[C@]2(C=C[C@@H]1C)C[C@@H]1C[C@@H](C/C=C(\C)[C@@H](O[C@H]3C[C@H](OC)[C@@H](O[C@H]4C[C@H](OC)[C@@H](O)[C@H](C)O4)[C@H](C)O3)[C@@H](C)/C=C/C=C3\CO[C@@H]4[C@H](O)C(C)=C[C@@H](C(=O)O1)[C@]34O)O2 (tested in a mixture with another compound)
CLASS ASSIGNMENT: 1 (yes)

###

- Read-out: Interleukin-8 (IL8), CXCL8 (gene 3576)
- EXPERIMENT NOTES: BSK_hDFCGF_IL8: BioMAP Diversity Plus: hDFCGF Assay for Interleukin-8 (IL8) Biomarker Activity (AID 2283058)
- STUDY CONDITIONS: primary human foreskin fibroblasts; actives raise or lower the signal
Active and inactive are the calls of the source. Rule for the calls: active = hit-call score of the fitted dose curve at least 0.9, where 1 is the maximum; inactive = score below 0.9.
Outcome codes: active, inactive

STRUCTURE: O=C(O)COc1ccc(Cl)cc1Cl
CLASS ASSIGNMENT: inactive
--
STRUCTURE: CCN(CC)C(=O)SCc1ccc(Cl)cc1
CLASS ASSIGNMENT: inactive
--
STRUCTURE: N#CN
CLASS ASSIGNMENT: inactive
--
STRUCTURE: Cc1[nH]c(=O)n(C(C)(C)C)c(=O)c1Cl
CLASS ASSIGNMENT: inactive
--
STRUCTURE: CCCN(CCC)c1c([N+](=O)[O-])cc(C(F)(F)F)cc1[N+](=O)[O-]
CLASS ASSIGNMENT: inactive
--
STRUCTURE: N#Cc1c(Cl)c(Cl)c(Cl)c(C#N)c1Cl
CLASS ASSIGNMENT: active
--
STRUCTURE: COC(=O)c1ccccc1S(=O)(=O)NC(=O)Nc1nc(C)nc(OC)n1
CLASS ASSIGNMENT: inactive
--
STRUCTURE: CNC(=O)CSP(=S)(OC)OC
CLASS ASSIGNMENT: inactive
--
STRUCTURE: CNC(=O)/C=C(\C)OP(=O)(OC)OC
CLASS ASSIGNMENT: inactive

###

- Read-out: Cyclin D1 (CCND1), CCND1 (gene 595)
- EXPERIMENT NOTES: LTEA_HepaRG_CCND1: Life Technologies and Expression Analysis (LTEA) Assay for Cyclin D1 (CCND1) using HepaRG (AID 2283451)
- STUDY CONDITIONS: mRNA level, 48 h; actives raise or lower the signal
The source made the active and inactive calls. Rule for the calls: active = hit-call score of the fitted dose curve at least 0.9, where 1 is the maximum; inactive = score below 0.9.
Outcome codes: TRUE (active), FALSE (inactive)

COMPOUND: C[C@H]1[C@H](c2ccc(Cl)cc2)SC(=O)N1C(=O)NC1CCCCC1
CLASS ASSIGNMENT: FALSE
--
COMPOUND: CC(C)N(C(=O)COc1nnc(C(F)(F)F)s1)c1ccc(F)cc1
CLASS ASSIGNMENT: FALSE
--
COMPOUND: CC[C@H](C)[C@H]1O[C@]2(C=C[C@@H]1C)C[C@@H]1C[C@@H](C/C=C(\C)[C@@H](O[C@H]3C[C@H](OC)[C@@H](O[C@H]4C[C@H](OC)[C@@H](O)[C@H](C)O4)[C@H](C)O3)[C@@H](C)/C=C/C=C3\CO[C@@H]4[C@H](O)C(C)=C[C@@H](C(=O)O1)[C@]34O)O2 (tested in a mixture with another compound)
CLASS ASSIGNMENT: FALSE
--
COMPOUND: CCC(C)(NC(=O)c1cc(Cl)c(C)c(Cl)c1)C(=O)CCl (centres undefined)
CLASS ASSIGNMENT: TRUE

###

- EXPERIMENT NOTES: CCTE_Padilla_ZF_144hpf_TERATOSCORE: (Legacy) CCTE's 144 Hour Post-fertilization zebrafish Assay Teratoscore, Padilla Lab (AID 2283679);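 for AC50: zebrafish embryos with chorions exposed by immersion from 6-8 hpf to 5 dpf with daily renewal; teratogenicity score from eye scoring of death hatching and malformations at 144 hpf; higher score means more developmental defects relative to DMSO baseline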
Active and inactive are the calls of the source. How the source made its calls: active means hit-call score of the fitted dose curve at least 0.9, where 1 is the maximum; inactive means score below 0.9.
REPORTED PROPERTY: AC50

COMPOUND: C#CCN1C(=O)COc2cc(F)c(N3C(=O)C4=C(CCCC4)C3=O)cc21
REPORTED PROPERTY: AC50
RESULT: 4.15 µM (active)
//
COMPOUND: CNC(=O)Oc1ccccc1OC(C)C
REPORTED PROPERTY: AC50
RESULT: inactive
//
COMPOUND: [2H]C1([2H])[n+]2ccccc2-c2cccc[n+]2C1([2H])[2H]
REPORTED PROPERTY: AC50
RESULT: inactive
//
COMPOUND: O=[N+]([O-])c1c(Cl)c(Cl)c(Cl)c(Cl)c1Cl
REPORTED PROPERTY: AC50
RESULT: 31.1 µM (active)
//
COMPOUND: CCN(CC)C(=O)SCc1ccc(Cl)cc1
REPORTED PROPERTY: AC50
RESULT: 23.4 µM (active)
//
COMPOUND: O=C1c2ccccc2C(=O)N1SC(Cl)(Cl)Cl
REPORTED PROPERTY: AC50
RESULT: 19.3 µM (active)
//
COMPOUND: COC(=O)c1ccccc1S(=O)(=O)NC(=O)Nc1nc(C)nc(OC)n1
REPORTED PROPERTY: AC50
RESULT: inactive
//
COMPOUND: CCCN(CCC)c1c([N+](=O)[O-])cc(C(F)(F)F)cc1[N+](=O)[O-]
REPORTED PROPERTY: AC50
RESULT: 0.601 µM (active)
//
COMPOUND: COP(=S)(OC)Oc1ccc(SC)c(C)c1
REPORTED PROPERTY: AC50
RESULT: 16.1 µM (active)
//
COMPOUND: CC(C)OC(=O)Nc1cccc(Cl)c1
REPORTED PROPERTY: AC50
RESULT: 72.3 µM (active)
//
COMPOUND: ClC1C(Cl)C(Cl)C(Cl)C(Cl)C1Cl (configuration not stated)
REPORTED PROPERTY: AC50
RESULT: 42.6 µM (active)
//
COMPOUND: N#Cc1c(Cl)c(Cl)c(Cl)c(C#N)c1Cl
REPORTED PROPERTY: AC50
RESULT: 0.187 µM (active)
